biological target: p53-Y220C DNA-binding domain (DBD) (Homo sapiens, UniProt P04637, M133L/N239Y/N268D/V203A/Y220C); construct: Stabilized p53-Y220C DBD (residues 94–312) was expressed and purified as previously described; made in house; assay: Differential scanning fluorimetry (DSF), stabilization of p53-Y220C DBD; details: pH 7.2, compound 125 μM; 8 μM stabilized p53-Y220C DBD; 25 mM KPi pH 7.2, 5% DMSO; triplicate
# ΔTm at 125 µM values compiled below

Molecule | ΔTm at 125 µM [°C]
CNCc1ccc2c(c1)c1ccccc1n2CCF [Compound 2] | 0.3
CNCc1ccc2c(c1)c1ccccc1n2CC(F)(F)F [Compound 4] | 1.2
CN(C)Cc1ccc2c(c1)c1ccccc1n2CC(F)(F)F [Compound 6] | 1.2
CCn1c2ccccc2c2cc(CN(C)C)ccc21 [Compound 5] | 0.6
CNCc1ccc2c(c1)c1ccccc1n2CC(F)F [Compound 3] | 0.4
